Measured koff accompanies every entry in the list below.
target: T1, human renalase-1 (Homo sapiens, UniProt Q5VYX0 18-342, limits assumed); assay: SPR, Biacore T100; biotinylated antibody captured on streptavidin chip, renalase-1 in solution
T1 construct: Whole entry named for renalase-1 (Glu at position 37); also called R1; HuRenalase-1
T1 sequence (Q5VYX0 18-342 limits assumed): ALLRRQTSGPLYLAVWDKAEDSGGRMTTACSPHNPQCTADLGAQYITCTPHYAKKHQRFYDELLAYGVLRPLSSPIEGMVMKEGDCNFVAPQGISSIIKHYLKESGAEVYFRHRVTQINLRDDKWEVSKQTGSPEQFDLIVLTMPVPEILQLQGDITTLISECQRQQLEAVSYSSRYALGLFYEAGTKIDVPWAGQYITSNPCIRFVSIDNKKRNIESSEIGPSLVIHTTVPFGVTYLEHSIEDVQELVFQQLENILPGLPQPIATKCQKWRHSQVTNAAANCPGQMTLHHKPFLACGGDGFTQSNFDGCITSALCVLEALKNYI
Lab book: enter the figure in s⁻¹, no units written.

>>> result("anti-renalase monoclonal antibody 1F-26-1 (antibody, V domains shown, Rabbit monoclonal IgG raised against peptide 1F; Biotinylated in the Biacore study; also called Bio-1F 26-1) VH: QSVKESEGGLFKPTDTLTLTCTVSGFSLSSYGVTWVRQAPGNGLEWIGLIGDRGTTFYASWAKSRSTITRNTNLNTVTLKMTRLTAADTATYFCARGSGYGARIWGPGTLVTVSS VL: AQVLTQTPSPVSAAVGGTVTINCQSSQSVYKNNYLAWYQQKPGQPPKLLIYETSKLASGVPPRFSGSGSGTQFTLTISSVQCDDAATYYCQGGYSGVDFMAFGGGTEVVVKG")
0.000102
>>> result("anti-renalase monoclonal antibody 1D-28-4 (antibody, V domains shown, Rabbit monoclonal IgG raised against peptide 1D (RP-220); also called m28-RNLS; Bio-1D 28-4) VH: QSVEESGGRLVTPGTPLTLTCTVSGFSLSSFAVGWVRQAPGKGLEYIGIISSVGITRYASWAAGRFTISKTSTTVDLKITSPTTEDTATYFCARYGYSGDVNRLDLWGQGTLVTVSS VL: AQVLTQTASPVSAAVGGTVTINCQASQSVYDNNNLAWYQQKPGQPPKQLIYGASTLASGVSSRFKGSGSGTQFTLTISGVQCDDAATYYCLGEFSCSSADCFAFGGGTEVVVKG")
"2.04e-05"

I would be grateful if you could share the reported koff for anti-renalase monoclonal antibody 1F-42-7 (antibody, V domains shown, Rabbit monoclonal IgG raised against peptide 1F; Biotinylated in the Biacore study; also called Bio-1F 42-7) VH: QSVKESEGGLFKPTDTLTLTCTVSGFSLTTYGVTWVRQAPGNGLEWIGLIGDRGTTYYASWVNGRSTITRNTNLNTVTLKMTRLTAADTATYFCARGSGYGARIWGPGTLVTVAS VL: AQVLTQTPSPMSAALGGTVTINCQSSQTVYNNNYLSWYQQKPGQPPKLLIYETSKLSSGVPPRFSGSGSGTQFTLTISSVQCDDAATYYCQGGYSGVDFMAFGGGTEVVVKG .
9.47e-05

What value of koff has been reported for the following binder? anti-renalase monoclonal antibody 1D-37-10 (antibody, V domains shown, Rabbit monoclonal IgG raised against peptide 1D (RP-220); Biotinylated in the Biacore study; also called m37-RNLS; Bio-1D 37-10) VH: QSVEESGGRLVTPGGSLTLTCTVSGFSLSDYAIIWVRQAPGKGLEYIAIIGSSGDTFYATWAKGRFTISKTSTTVDLKMTSLTAADTATYFCAPRYAGTTDYHDAFDPWGPGTLVTVSS VL: EVVMTQTPASMEAPMGGTVTIKCQASQNIYNYLSWYQQKPGQPPKLLVYKASTLTSGVPSRFKGSGSGTQFTLTISDLECADAATYYCQINYSIYNHYNIIFGGGTEVVVKG
4.67e-05
